Sourced from patent US20220041583A1

# SYSTEM_TESTED: PD-1/PD-L1 (Homo sapiens, UniProt Q9NZQ7)
# Construct: Recombinant human PD-L1 protein (19-238) with a His-tag at the C-terminus; purchased AcroBiosystems PD1-H5229 (PD-L1); PD1-H5257 (PD-1)
# Sequence (Q9NZQ7 19-238): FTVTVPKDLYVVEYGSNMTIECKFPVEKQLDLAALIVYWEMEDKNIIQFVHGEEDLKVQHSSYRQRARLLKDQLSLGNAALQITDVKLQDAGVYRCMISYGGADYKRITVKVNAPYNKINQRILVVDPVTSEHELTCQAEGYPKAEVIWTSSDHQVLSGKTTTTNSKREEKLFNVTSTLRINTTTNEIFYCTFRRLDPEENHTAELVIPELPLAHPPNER
# RUN_DESCRIPTION: PD-1/PD-L1 homogenous time-resolved fluorescence (HTRF) binding assay
# CONDITION_DETAILS: Table 6, class symbols
pIC50: −log10 of the molar value.
Recorded pIC50 for the following molecules

Cc1c(-c2ccccc2)cccc1-c1nc2cc(CN[C@H](C)C(=O)O)c(OCC(F)(F)F)cc2o1 [Example 56] :: 7.00 to 8.00
N#Cc1c(-c2ccccc2)cccc1-c1nc2cc(CN3CCC[C@H]3C(=O)O)c(OC(F)F)cc2o1 [Example 44] :: 8.00 to 10.00
Cc1c(-c2ccccc2)cccc1-c1nc2cc(CN[C@@H](C)C(=O)O)c(OC(F)F)cc2o1 [Example 33] :: 8.00 to 10.00

Field: next molecule
[Q] Please report the recorded pIC50 for CNc1cc2oc(-c3cccc(-c4ccccc4)c3C)nc2cc1CN1CCCCC1C(=O)O (stereo not shown) [Example 27] .
[A] 8.00 to 10.00
